system_under_test: recombinant rat PAI-1 (Rattus norvegicus)
Sequence (P20961 24-402): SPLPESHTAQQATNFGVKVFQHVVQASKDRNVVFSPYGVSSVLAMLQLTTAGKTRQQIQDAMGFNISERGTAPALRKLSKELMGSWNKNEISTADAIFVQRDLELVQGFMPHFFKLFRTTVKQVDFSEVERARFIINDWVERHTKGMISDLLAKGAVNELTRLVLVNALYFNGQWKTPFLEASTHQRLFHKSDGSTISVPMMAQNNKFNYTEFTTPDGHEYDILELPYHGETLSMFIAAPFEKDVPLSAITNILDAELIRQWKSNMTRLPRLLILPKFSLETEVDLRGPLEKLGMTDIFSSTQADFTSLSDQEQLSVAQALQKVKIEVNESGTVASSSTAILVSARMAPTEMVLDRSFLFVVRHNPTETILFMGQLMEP
method_summary: Test Example 3: rat PAI-1 inhibitory activity (as Test Example 2 with rat PAI-1)
experimental_setup: rat PAI-1; calculated from the inhibition rates
recorded_metric: IC50 (nM)
Report as a plain number; the unit nM is understood.

Query: Requested read-out: IC50. Entry: CC(C)(Oc1cc(-c2ccc(OC(F)(F)F)cc2)ccc1OCc1ccc(C(C)(C)C)cc1)C(=O)O [Compound 106]
Reply: 1710

Query: Lookup CC(C)(Oc1cc(-c2ccc(OC(F)(F)F)cc2)ccc1OCCCCc1ccccc1)C(=O)O [Compound 116]
Reply: 3240

Query: Consider next the compound CCN(CC)c1ccc(N(CCCc2ccccc2)C(=O)C(=O)O)c(-c2ccc(OC(F)(F)F)cc2)c1 [Compound 238] in the same way.
Reply: 3140

Query: Another compound: O=C(O)CCc1cc(-c2ccc(OC(F)(F)F)cc2)ccc1OCCCCc1ccccc1 [Compound 102]
Reply: 2750

====

system_under_test: recombinant human PAI-1 (Homo sapiens)
Construct: purchased Molecular Innovations, Inc
method_summary: Test Example 2: human PAI-1 inhibitory activity (tPA fluorogenic substrate, pH 7.4 HEPES buffer)
Type: biochemical
experimental_setup: human PAI-1; compound concentration 0.1 μM
Exercise: state measured Inhibition Rate of PAI-1 Activity (%) for each of the molecules provided.
// note: answer is a bare numeric in %

Query: // returns reported Inhibition Rate of PAI-1 Activity (%) for input `CC(C)c1ccccc1Oc1cc(-c2ccc(OC(F)(F)F)cc2)ccc1OCC(=O)O`
Reply: 17

Query: Next record, please: `CCCCCCCOc1ccc(-c2ccc(OC(F)(F)F)cc2)cc1N(CCCCc1ccccc1)C(=O)C(=O)O`
Reply: 10

Query: Try CCCCCCOc1cc(-c2ccc(OC(F)(F)F)cc2)ccc1OC(CCCCCC)C(=O)O (stereo not drawn) next.
Reply: 1

====

So I've got a bunch of compounds here, and I need their Inhibition Rate of PAI-1 Activity (%) values.
system_under_test: recombinant human PAI-1 (Homo sapiens, UniProt P05121)
Construct: purchased Molecular Innovations, Inc
Sequence (P05121 24-402): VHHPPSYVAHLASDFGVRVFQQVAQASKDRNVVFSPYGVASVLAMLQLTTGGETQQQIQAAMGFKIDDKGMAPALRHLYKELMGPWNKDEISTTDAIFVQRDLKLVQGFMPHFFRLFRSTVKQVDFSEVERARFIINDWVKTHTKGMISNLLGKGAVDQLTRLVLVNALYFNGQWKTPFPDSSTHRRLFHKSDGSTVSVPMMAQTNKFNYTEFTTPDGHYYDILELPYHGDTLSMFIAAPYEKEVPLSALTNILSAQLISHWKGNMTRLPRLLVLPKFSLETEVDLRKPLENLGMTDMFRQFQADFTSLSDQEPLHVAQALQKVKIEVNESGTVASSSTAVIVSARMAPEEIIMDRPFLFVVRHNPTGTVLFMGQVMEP
method_summary: Test Example 2: human PAI-1 inhibitory activity (tPA fluorogenic substrate, pH 7.4 HEPES buffer)
Type: biochemical
experimental_setup: human PAI-1; compound concentration 0.3 μM
Quick note: give the figure in %, leave out the unit.

Query: Item CSc1ccc(-c2ccc(OCC(=O)O)c(Oc3ccc(C(C)(C)C)cc3)c2)cc1 [Compound 448] has what recorded Inhibition Rate of PAI-1 Activity (%)?
Reply: 11

Query: Please give the result for CCCCCOc1ccc(-c2ccc(OC(F)(F)F)cc2)cc1N(CCCCc1ccccc1)CC(=O)O [Compound 640] too.
Reply: 19

Query: Also CC(C)(C)c1ccc(CCc2cc(-c3ccc(OC(F)(F)F)cc3)ccc2OCC(=O)O)cc1 [Compound 551] ?
Reply: 4

Query: Quick one: CCCCC1CCC(Oc2ccc(-c3ccc(OC(F)(F)F)cc3)cc2N(CCCCc2ccccc2)C(=O)C(=O)O)CC1 (stereo not shown) [Compound 637]
Reply: 5

Query: Next: CC(C)(C)c1ccc(Oc2ccc(-c3ccc(C(C)(C)C)cc3)cc2OCC(=O)O)cc1 [Compound 453]
Reply: 15

Query: Now try O=C(O)C(=O)N(CCCCc1ccccc1)c1ccc(N2CCCC2)c(-c2ccc(OC(F)(F)F)cc2)c1 [Compound 673] .
Reply: 15

Query: Follow-up item: CCCCc1ccc(-c2ccc(OCC(=O)O)c(Oc3ccc(C(C)(C)C)cc3)c2)cc1 [Compound 443]
Reply: 8

Query: Next entry: CCCCOc1cccc(Oc2cc(-c3ccc(OC(F)(F)F)cc3)ccc2CCC(=O)O)c1 [Compound 472]
Reply: 14

Query: How about CC(C)(C)c1ccc(Cc2cc(-c3ccc(OC(F)(F)F)cc3)ccc2OCC(=O)O)cc1 [Compound 550] ?
Reply: 2

Query: Consider next the compound O=C(O)CCc1cc(-c2ccc(OC(F)(F)F)cc2)ccc1OCCCCCOc1ccc(-c2ccc(OC(F)(F)F)cc2)cc1CCC(=O)O [Compound 544] in the same way.
Reply: 3

Query: # repeat for CC(C)(C)c1ccc(Oc2ccc(Nc3ccc(OC(F)(F)F)cc3)cc2/C=C/C(=O)O)cc1 [Compound 431]
Reply: 0

Query: Can you check CC(C)(C)C1CCC(CN(C(=O)C(=O)O)c2ccc(-c3ccc(OC(F)(F)F)cc3)cc2)CC1 (stereo not shown) [Compound 680] next?
Reply: 9

Query: Same question for CC(C)(C)c1ccc(Oc2cc(-c3cccc(OC(F)(F)F)c3)ccc2/C=C/C(=O)O)cc1 [Compound 503] please.
Reply: 27

Query: For CCC(CC)Oc1ccc(-c2ccc(OCC(=O)O)c(Oc3ccc(C(C)(C)C)cc3)c2)cc1 [Compound 447] then?
Reply: 11

Query: // query: CCCN(CC(=O)O)c1cc(-c2ccc(OC(F)(F)F)cc2)ccc1Oc1ccc(C(C)(C)C)cc1 [Compound 435]
Reply: 29

Query: Let us now turn to CCCCCOc1cc(-c2ccc(OC(F)(F)F)cc2)ccc1N(CCCCc1ccccc1)CC(=O)O [Compound 643]
Reply: 18

Query: Param item: CCCCc1ccc(Oc2cc(-c3ccc(OC(F)(F)F)cc3)ccc2CCC(=O)O)cc1 [Compound 512]
Reply: 41

Query: Next: O=C(O)/C=C/c1ccc(-c2ccc(OC(F)(F)F)cc2)cc1OCCCOCc1ccccc1 [Compound 487]
Reply: 3

Query: Also need O=C(O)/C=C/c1ccc(-c2ccc(OC(F)(F)F)cc2)cc1Sc1ccccc1 [Compound 528] , thanks.
Reply: 12

Query: For CC(C)c1ccc(-c2ccc(/C=C/C(=O)O)c(Oc3ccc(C(C)(C)C)cc3)c2)cc1 [Compound 518] then?
Reply: 54

Query: Subsequent entry: CCCCN(CC(=O)O)c1cc(-c2ccc(OC(F)(F)F)cc2)ccc1OCCCCc1ccccc1 [Compound 433]
Reply: 6

Query: Moving on to CC(C)(C)c1ccc(Sc2cc(-c3ccc(OC(F)(F)F)cc3)ccc2/C=C\C(=O)O)cc1 [Compound 529]
Reply: 29

Query: Now consider O=C(O)C(=O)N(CCCCc1ccccc1)c1cc(-c2ccc(OC(F)(F)F)cc2)ccc1OC1CCCCCC1 [Compound 659] .
Reply: 26

Query: Try the compound CCCCCOc1ccc(-c2ccc(C(C)C)cc2)cc1N(CCCCc1ccccc1)C(=O)C(=O)O [Compound 678]
Reply: 33

Query: Cool, now CCCCCOc1cc(N(CCCCc2ccccc2)C(=O)C(=O)O)ccc1-c1ccc(OC(F)(F)F)cc1 [Compound 654]
Reply: 19

Query: What about CCCCCOc1ccc(-c2ccc(C)cc2)cc1N(CCCCc1ccccc1)C(=O)C(=O)O [Compound 677] ?
Reply: 17

Query: Next record, please: CC(C)(C)c1ccc(Oc2cc(-c3ccc(F)cc3)ccc2OCC(=O)O)cc1 [Compound 459]
Reply: 31

Query: Repeat with CC(C)(C)c1ccc(Sc2cc(-c3ccc(OC(F)(F)F)cc3)ccc2/C=C/C(=O)O)cc1 [Compound 462]
Reply: 94

Query: // query: CC(C)(C)OCCOc1ccc(-c2ccc(OC(F)(F)F)cc2)cc1N(CCCCc1ccccc1)CC(=O)O [Compound 644]
Reply: 8

Query: For CCCCc1ccc(Oc2cc(-c3ccc(OC(F)(F)F)cc3)ccc2/C=C/C(=O)O)cc1 [Compound 511] then?
Reply: 68

Query: Input CCCCC(Nc1cc(-c2ccc(OC(F)(F)F)cc2)ccc1Oc1ccc(C(C)(C)C)cc1)C(=O)O (stereo not shown) [Compound 423]
Reply: 1

====

system_under_test: recombinant rat PAI-1 (Rattus norvegicus)
Construct: purchased Molecular Innovations, Inc
method_summary: Test Example 3: rat PAI-1 inhibitory activity (as Test Example 2 with rat PAI-1)
Assay type: biochemical
experimental_setup: rat PAI-1; compound concentration 0.3 μM
Kindly state Inhibition Rate of PAI-1 Activity (%) for each of the entries shown.
Answer with a number only, understood to be in %.

Query: Checklist item: Inhibition Rate of PAI-1 Activity (%) tested on recombinant rat PAI-1 (Rattus norvegicus), entry `CN(C)c1ccc(N(Cc2ccc(C(C)(C)C)cc2)C(=O)C(=O)O)cc1-c1ccc(OC(F)(F)F)cc1` , value?
Reply: 0

Query: Try this molecule too: `CCN(CC)c1ccc(N(Cc2ccc(C(C)(C)C)cc2)C(=O)C(=O)O)cc1-c1ccc(OC(F)(F)F)cc1`
Reply: 8

Query: Cool, now `Cc1cc(N(C)C)c(-c2ccc(OC(F)(F)F)cc2)cc1N(Cc1ccc(C(C)(C)C)cc1)C(=O)C(=O)O`
Reply: 2

Query: Could you do the same for `CC(C)Oc1ccc(N(Cc2ccc(C(C)(C)C)cc2)C(=O)C(=O)O)cc1-c1ccc(OC(F)(F)F)cc1` , please?
Reply: 4

Query: Param item: `CCCCc1ccc(COc2ccc(-c3ccc(OC(F)(F)F)cc3)cc2CCC(=O)O)cc1`
Reply: 0

Query: # repeat for `CC(C)(C)c1ccc(CN(C(=O)C(=O)O)c2ccc(OCc3ccccc3)c(-c3ccc(OC(F)(F)F)cc3)c2)cc1`
Reply: 8
